Parameter: inhibition. Scope: all listed entries.
Biological target: ALK tyrosine kinase receptor (Homo sapiens) (UniProt Q9UM73)
Sequence (Q9UM73 19-1620 limits assumed): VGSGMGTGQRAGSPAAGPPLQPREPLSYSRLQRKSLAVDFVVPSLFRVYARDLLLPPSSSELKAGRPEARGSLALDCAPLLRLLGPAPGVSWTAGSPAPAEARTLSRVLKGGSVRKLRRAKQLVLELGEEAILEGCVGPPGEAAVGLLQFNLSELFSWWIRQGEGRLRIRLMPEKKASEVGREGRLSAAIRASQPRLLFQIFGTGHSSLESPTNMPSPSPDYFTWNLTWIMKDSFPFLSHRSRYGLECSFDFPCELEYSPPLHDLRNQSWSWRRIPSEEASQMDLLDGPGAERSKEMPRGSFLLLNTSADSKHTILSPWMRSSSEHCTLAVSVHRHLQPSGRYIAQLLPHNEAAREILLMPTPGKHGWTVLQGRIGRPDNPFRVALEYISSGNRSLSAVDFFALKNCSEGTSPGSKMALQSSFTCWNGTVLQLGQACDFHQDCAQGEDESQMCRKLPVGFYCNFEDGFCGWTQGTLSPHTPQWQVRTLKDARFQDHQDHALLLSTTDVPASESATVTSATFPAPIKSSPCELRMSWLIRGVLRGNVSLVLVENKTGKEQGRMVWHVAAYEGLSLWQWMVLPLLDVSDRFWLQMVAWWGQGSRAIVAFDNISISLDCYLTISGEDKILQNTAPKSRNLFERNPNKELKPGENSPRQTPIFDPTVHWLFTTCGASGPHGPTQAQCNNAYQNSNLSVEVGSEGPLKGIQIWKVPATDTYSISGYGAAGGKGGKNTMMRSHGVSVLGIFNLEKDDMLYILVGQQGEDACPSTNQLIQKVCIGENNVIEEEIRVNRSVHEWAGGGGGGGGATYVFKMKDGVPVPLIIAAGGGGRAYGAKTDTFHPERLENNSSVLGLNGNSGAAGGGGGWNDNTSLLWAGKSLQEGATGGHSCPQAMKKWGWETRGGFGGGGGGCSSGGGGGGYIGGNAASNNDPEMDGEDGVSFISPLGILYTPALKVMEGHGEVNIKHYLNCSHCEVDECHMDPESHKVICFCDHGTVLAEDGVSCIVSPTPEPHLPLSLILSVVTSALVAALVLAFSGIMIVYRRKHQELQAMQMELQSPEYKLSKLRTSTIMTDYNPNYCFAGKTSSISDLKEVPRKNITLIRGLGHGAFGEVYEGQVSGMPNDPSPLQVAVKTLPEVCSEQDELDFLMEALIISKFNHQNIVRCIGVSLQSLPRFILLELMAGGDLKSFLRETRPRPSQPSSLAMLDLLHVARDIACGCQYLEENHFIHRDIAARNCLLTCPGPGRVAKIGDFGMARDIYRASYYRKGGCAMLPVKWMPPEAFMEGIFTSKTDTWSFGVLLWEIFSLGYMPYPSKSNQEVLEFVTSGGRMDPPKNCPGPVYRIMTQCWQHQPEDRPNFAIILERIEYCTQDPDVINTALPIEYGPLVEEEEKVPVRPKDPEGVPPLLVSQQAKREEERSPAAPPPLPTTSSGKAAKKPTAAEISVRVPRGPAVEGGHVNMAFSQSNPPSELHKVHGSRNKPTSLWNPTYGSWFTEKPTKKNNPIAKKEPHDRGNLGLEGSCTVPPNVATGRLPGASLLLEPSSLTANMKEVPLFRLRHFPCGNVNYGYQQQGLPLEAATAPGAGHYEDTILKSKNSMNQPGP
Details: at 0.1 µM
Description: GSK_PKIS: ALK mean inhibition at 0.1 uM [Nanosyn]
MEASUREMENT_NAME: inhibition (%)

>>> print(df.to_string())
                                   compound  measurement_name  units  experimental_value
0  CC1=C(C(=O)Nc2cc(Cl)c3[nH]ncc3c2)C(c2ccc(C(F)(F)F)cc2)CC(=O)N1 (stereo not given)        inhibition      %                2.22
1  O=C(Nc1n[nH]c2cc(-c3ccc(F)cc3)ccc12)C1CC1        inhibition      %                1.12
2  COC(=O)Nc1nc2ccc(Oc3ccc(NC(=O)Nc4cccc(Cl)c4)cc3)cc2[nH]1        inhibition      %                1.45
3  CCCN(CCS(C)(=O)=O)Cc1ccc(-c2ccc3ncnc(Nc4ccc(OCc5cccc(F)c5)c(Cl)c4)c3c2)o1        inhibition      %                1.67
4  CCN1CCC(CC(=O)Nc2n[nH]c3nnc(-c4cccc(F)c4F)cc23)CC1        inhibition      %                2.51
5       N#Cc1c(NC(=O)c2ccc(F)cc2)sc2c1CCCC2        inhibition      %               -0.03
6  COc1cc2ncn(-c3cc(OCc4ccccc4C(F)(F)F)c(C(=O)N(C)C)s3)c2cc1OC        inhibition      %                0.27
7   NS(=O)(=O)c1ccc(Nc2ncc(-c3ccccc3)o2)cc1        inhibition      %                1.53
8  CS(=O)(=O)CCNCc1coc(-c2ccc3ncnc(Nc4ccc(OCc5ccccc5)cc4)c3c2)c1        inhibition      %                2.87
9                CCn1c(-c2nonc2N)nc2ccccc21        inhibition      %                 1.5

* * *

The entries below are paired with their reported inhibition.
Tested on: Tyrosine-protein kinase ABL1 (Homo sapiens), P00519 [Q252H]
Settings: at 1 µM
MEASUREMENT_NAME: inhibition (%)

                           molecular_string  units  experimental_value
0  FC(F)(F)c1cccc(-c2nn3ncccc3c2-c2ccnc(Nc3ccc4c(c3)OCCO4)n2)c1      %                45.2
1  COC(=O)c1sc(-n2cnc3cc(OC)c(OC)cc32)cc1OCc1ccccc1C(F)(F)F      %                18.9
2  COc1cccc(-n2ncc3c(N/N=C/c4ccc(F)cc4)ncnc32)c1      %                88.8
3  CN1CCC(n2cnc(-c3ccc(F)cc3)c2-c2ccnc(N)n2)CC1      %                6.83
4  CNC(=O)c1cc(-c2ccc(F)cc2)cc(-c2ccc(S(=O)(=O)N3CCCC3)cc2)c1N      %                1.16

* * *

Reported inhibition values are given for each entry in this list.
Biological target: Dual specificity tyrosine-phosphorylation-regulated kinase 2 (Homo sapiens);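 also: reported values are means of DYRK2 inhibition from screening the GSK PKIS collection at 1 µM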
Sequence (whole entry): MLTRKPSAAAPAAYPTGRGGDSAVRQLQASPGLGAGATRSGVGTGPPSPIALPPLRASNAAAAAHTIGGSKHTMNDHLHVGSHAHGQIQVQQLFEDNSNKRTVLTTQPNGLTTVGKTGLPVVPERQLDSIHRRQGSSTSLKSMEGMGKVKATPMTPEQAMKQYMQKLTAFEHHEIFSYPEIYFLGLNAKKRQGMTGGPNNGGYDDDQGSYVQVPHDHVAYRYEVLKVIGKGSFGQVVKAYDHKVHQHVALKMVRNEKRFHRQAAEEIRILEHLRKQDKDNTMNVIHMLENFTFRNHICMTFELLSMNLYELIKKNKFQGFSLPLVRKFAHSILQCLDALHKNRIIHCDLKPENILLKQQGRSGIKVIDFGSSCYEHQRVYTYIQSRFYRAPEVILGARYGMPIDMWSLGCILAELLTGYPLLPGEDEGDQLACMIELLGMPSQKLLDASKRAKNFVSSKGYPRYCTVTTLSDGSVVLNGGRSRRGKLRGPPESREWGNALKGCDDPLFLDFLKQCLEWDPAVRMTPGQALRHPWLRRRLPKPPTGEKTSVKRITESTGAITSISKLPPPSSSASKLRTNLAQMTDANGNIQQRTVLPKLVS
Conditions: at 1 µM
MEASUREMENT_NAME: inhibition (%)

                           molecular_string  units  experimental_value
0  COc1cc(Nc2nccc(Nc3ccc4c(C)n[nH]c4c3)n2)cc(OC)c1OC      %                4.25
1  CCN(CC)S(=O)(=O)c1ccc(OC)c(Nc2ncc(-c3ccccc3)o2)c1      %                6.15
2  COc1ccc(-c2cc(-c3c[nH]nc3-c3ccccn3)ccn2)cc1      %                 3.1

* * *

Target: Homeodomain-interacting protein kinase 4 (Homo sapiens);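 also: reported as mean inhibition, part of the GSK PKIS dataset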
Sequence (whole entry): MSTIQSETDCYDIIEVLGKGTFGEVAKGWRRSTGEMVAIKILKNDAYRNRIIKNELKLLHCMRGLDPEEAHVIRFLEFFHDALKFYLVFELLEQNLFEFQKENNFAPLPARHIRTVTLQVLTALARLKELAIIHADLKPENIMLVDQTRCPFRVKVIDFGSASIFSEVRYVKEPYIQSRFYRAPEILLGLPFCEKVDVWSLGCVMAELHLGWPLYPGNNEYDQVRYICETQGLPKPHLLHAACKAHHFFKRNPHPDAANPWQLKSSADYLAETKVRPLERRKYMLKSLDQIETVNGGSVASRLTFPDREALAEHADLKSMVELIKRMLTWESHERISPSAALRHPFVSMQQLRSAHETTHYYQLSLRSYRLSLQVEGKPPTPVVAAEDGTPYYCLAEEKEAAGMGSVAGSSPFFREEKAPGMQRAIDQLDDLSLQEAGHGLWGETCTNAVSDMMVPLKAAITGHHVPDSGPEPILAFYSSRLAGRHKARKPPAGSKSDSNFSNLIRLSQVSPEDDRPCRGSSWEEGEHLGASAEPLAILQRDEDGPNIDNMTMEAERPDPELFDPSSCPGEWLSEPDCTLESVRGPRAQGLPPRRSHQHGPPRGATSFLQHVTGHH
Settings: at 0.1 µM
Overview of recorded inhibition for various compounds
MEASUREMENT_NAME: inhibition (%)

In [3]: df
Out[3]:
                                    compound                         target_under_test  measurement_name  experimental_value
 0       COc1cc(/C=N/Nc2ncnc3[nH]ncc23)ccc1O  Homeodomain-interacting protein kinase 4 (Homo sapiens)        inhibition                5.91
 1    Cc1ccc(O)cc1Nc1ccnc2cc(-c3ccccn3)ccc12  Homeodomain-interacting protein kinase 4 (Homo sapiens)        inhibition                1.19
 2  CS(=O)(=O)CCNCc1ccc(-c2ccc3ncnc(Nc4ccc(OCc5ccccc5)c(C(F)(F)F)c4)c3c2)o1  Homeodomain-interacting protein kinase 4 (Homo sapiens)        inhibition               -0.74
 3  O=C(Nc1n[nH]c2cc(-c3ccc(F)cc3)ccc12)C1CC1  Homeodomain-interacting protein kinase 4 (Homo sapiens)        inhibition                0.01
 4  CC(=O)Nc1cccc(C#Cc2cncnc2Nc2ccc(OCc3cccc(F)c3)c(Cl)c2)c1  Homeodomain-interacting protein kinase 4 (Homo sapiens)        inhibition                1.24
 5          CCc1nn2ncccc2c1-c1ccnc(NC2CC2)n1  Homeodomain-interacting protein kinase 4 (Homo sapiens)        inhibition                2.35
 6                CCn1c(-c2nonc2N)nc2ccccc21  Homeodomain-interacting protein kinase 4 (Homo sapiens)        inhibition                1.45
 7  NC(=O)c1sc(-n2cnc3ccc(C(F)(F)F)cc32)cc1OCc1ccccc1Br  Homeodomain-interacting protein kinase 4 (Homo sapiens)        inhibition                1.27
 8  CC(C)(CO)CNC(=O)c1ccc2c(c1)/C(=N/Nc1ccc(S(N)(=O)=O)cc1)C(=O)N2  Homeodomain-interacting protein kinase 4 (Homo sapiens)        inhibition               -0.55
 9  CC1=C(C(=O)Nc2cc(Cl)c3[nH]ncc3c2)C(c2ccc(C(F)(F)F)cc2)CC(=O)N1 (stereo not given)  Homeodomain-interacting protein kinase 4 (Homo sapiens)        inhibition               -0.54
10  COc1cc2c(cc1Nc1nc(Nc3ccsc3C(N)=O)c3cc[nH]c3n1)N(C(=O)CN(C)C)CCC2(C)C  Homeodomain-interacting protein kinase 4 (Homo sapiens)        inhibition               -0.16
11  O=S(=O)(CCNCc1ccc(-c2ccc3ncnc(Nc4ccc(OCc5cccc(F)c5)c(Cl)c4)c3c2)o1)c1ccccc1  Homeodomain-interacting protein kinase 4 (Homo sapiens)        inhibition                3.74
12  COc1ccc(-c2oc3ncnc(N)c3c2-c2ccc(NC(=O)Nc3cc(C(F)(F)F)ccc3F)cc2)cc1  Homeodomain-interacting protein kinase 4 (Homo sapiens)        inhibition                68.7
13  CCn1cc(-c2ccnc3[nH]ccc23)c(-c2cccc(NC(=O)Nc3ccc(OCc4ccccc4)cc3)c2)n1  Homeodomain-interacting protein kinase 4 (Homo sapiens)        inhibition                -1.8
14  CC(=O)NCc1cccc(C#Cc2cncnc2Nc2ccc(OCc3cccc(F)c3)c(Cl)c2)c1  Homeodomain-interacting protein kinase 4 (Homo sapiens)        inhibition               -1.54
15   NS(=O)(=O)c1ccc(Nc2ncc(-c3ccccc3)o2)cc1  Homeodomain-interacting protein kinase 4 (Homo sapiens)        inhibition                6.48
16  CCn1c(-c2nonc2N)nc2c(C#CC(C)(C)O)nc(OC[C@H](N)c3ccccc3)cc21  Homeodomain-interacting protein kinase 4 (Homo sapiens)        inhibition                3.08
17       N#Cc1c(NC(=O)c2ccc(F)cc2)sc2c1CCCC2  Homeodomain-interacting protein kinase 4 (Homo sapiens)        inhibition               -1.19
18  COc1ccc(-c2cc(-c3c[nH]nc3-c3ccccn3)ccn2)cc1  Homeodomain-interacting protein kinase 4 (Homo sapiens)        inhibition                2.68
19  Nc1nc(-c2cccc(Cl)c2)c(-c2ccc3ncccc3n2)s1  Homeodomain-interacting protein kinase 4 (Homo sapiens)        inhibition                2.76
